# study_target: T1, GHRH receptor (membrane receptors of human anterior pituitary cells) (human, UniProt Q02643 23-423)
# T1 construct: whole, on cells; Native receptor in a membrane fraction of purchased normal human pituitaries, not intact cells; also called hGHRH receptor; human pituitary membrane homogenates
# T1 sequence (looked up): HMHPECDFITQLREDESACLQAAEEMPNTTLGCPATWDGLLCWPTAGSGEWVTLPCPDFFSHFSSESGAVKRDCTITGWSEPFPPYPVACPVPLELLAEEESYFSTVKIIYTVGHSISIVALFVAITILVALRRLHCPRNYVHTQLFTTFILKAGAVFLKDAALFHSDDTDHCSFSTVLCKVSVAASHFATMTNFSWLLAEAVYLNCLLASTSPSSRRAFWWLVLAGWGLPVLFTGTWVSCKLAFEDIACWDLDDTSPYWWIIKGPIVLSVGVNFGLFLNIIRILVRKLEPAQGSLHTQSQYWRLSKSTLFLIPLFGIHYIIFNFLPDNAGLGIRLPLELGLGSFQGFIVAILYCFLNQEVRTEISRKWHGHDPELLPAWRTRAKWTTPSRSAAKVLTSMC
# assay_remarks: competition with 125I-[His1,Nle27]hGHRH(1-32)NH2, human pituitary membranes
Non-standard residues stand in square brackets, D forms with d. No end group written: not given here. *: point of attachment. NMeY = CN[C@@H](Cc1ccc(O)cc1)C(=O)O; Agmatine = N=C(N)NCCCCN*; Nle = CCCC[C@H](N)C(=O)O; Orn = NCCC[C@H](N)C(=O)O; Abu = CC[C@H](N)C(=O)O
For each entry below, report its pIC50 value.
By convention, pIC50 is the negative base-10 log of a molar concentration.

Given [NMeY][dA]DAIFTNSYR[Orn]VL[Abu]QLSAR[Orn]LLQDI[Nle]DR-NHEt (also called MR-421; Peptide 28421) [P-28421 [N-Me-Tyr^1, D-Ala^2, Orn^12, Abu^15, Orn^21, Nle^27, Asp^28]hGHRH(1-29)NH-CH2-CH3] , respond with its pIC50.
8.52

Supply recorded pIC50 for [NMeY][dA]DAIFTNSYR[Orn]VL[Abu]QLSAR[Orn]LLQDI[Nle]D[Agmatine] (also called Peptide 20367) [P-20367 [N-Me-Tyr^1, D-Ala^2, Orn^12, Abu^15, Orn^21, Nle^27, Asp^28, Agm^29]hGHRH(1-29)NH2] here.
8.96

Give the measured pIC50 for [NMeY][dA]DAIFTQSYR[Orn]VL[Abu]QLSAR[Orn]LLQDI[Nle]D[Agmatine] (also called Peptide 20361) [P-20361 [N-Me-Tyr^1, D-Ala^2, Gln^8, Orn^12, Abu^15, Orn^21, Nle^27, Asp^28, Agm^29]hGHRH(1-29)NH2]
8.92

Note pIC50 for the binder shown: [NMeY][dA]DAIFTTSYR[Orn]VL[Abu]QLSAR[Orn]LLQDI[Nle]DR-NHMe (also called MR-410; Peptide 27410) [P-27410 [N-Me-Tyr^1, D-Ala^2, Thr^8, Orn^12, Abu^15, Orn^21, Nle^27, Asp^28]hGHRH(1-29)NH-CH3]
8.89

Please look at this binder and report its pIC50: [NMeY][dA]DAIFTQSYR[Orn]VL[Abu]QLSAR[Orn]LLQDI[Nle]DR-NHMe [P-27403 [N-Me-Tyr^1, D-Ala^2, Gln^8, Orn^12, Abu^15, Orn^21, Nle^27, Asp^28]hGHRH(1-29)NH-CH3]
9.13

Provide only the value of recorded pIC50 for [NMeY][dA]DAIFTQSYR[Orn]VL[Abu]QLSAR[Orn]LLQDI[Nle]DR-NHEt (also called MR-420; Peptide 28420) [P-28420 [N-Me-Tyr^1, D-Ala^2, Gln^8, Orn^12, Abu^15, Orn^21, Nle^27, Asp^28]hGHRH(1-29)NH-CH2-CH3]
8.57

Quick one: give measured pIC50 for [NMeY][dA]DAIFTNSYR[Orn]VL[Abu]QLSAR[Orn]LLQDI[Nle]DR-NHMe (also called MR-409; Peptide 27409) [P-27409 [N-Me-Tyr^1, D-Ala^2, Orn^12, Abu^15, Orn^21, Nle^27, Asp^28]hGHRH(1-29)NH-CH3]
9.00
